# systemName: p38 MAP kinase (Homo sapiens, UniProt Q16539)
# Sequence (Q16539 whole entry): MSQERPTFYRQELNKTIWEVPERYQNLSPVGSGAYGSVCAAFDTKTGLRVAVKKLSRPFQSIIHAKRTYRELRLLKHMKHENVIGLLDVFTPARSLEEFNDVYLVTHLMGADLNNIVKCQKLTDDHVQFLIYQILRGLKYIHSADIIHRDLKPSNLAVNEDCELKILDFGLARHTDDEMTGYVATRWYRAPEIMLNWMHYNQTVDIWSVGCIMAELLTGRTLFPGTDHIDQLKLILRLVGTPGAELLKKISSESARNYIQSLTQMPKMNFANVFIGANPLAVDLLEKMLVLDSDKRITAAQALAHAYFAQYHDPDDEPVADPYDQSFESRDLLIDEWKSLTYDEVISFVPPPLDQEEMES
# assayNotes: in vitro inhibition of p-38 (MAP) kinase: transfer of γ-phosphate from γ-33P-ATP to Myelin Basic Protein
# reportedConditions: phosphorylated recombinant p38 MAP kinase, MBP substrate, 30° C., read-out: IC50 (p-38 inhibitory activity, concentration causing 50% inhibition of the p-38 enzyme)
propertyLabel: IC50 (nM)

| compound | u | obsValue |
| --- | --- | --- |
| C[C@H](Nc1ncc2cc(-c3ccccc3Cl)c(=O)n(-c3ccc(F)cc3)c2n1)C(C)(C)O [Cpd 7] | nM | 0.3 |

[P] Nn1c(=O)c(-c2ccccc2Cl)cc2cnc(NC3CCCC3)nc21 [Cpd 11]
[Q] Cl.O=C(O)CN1CCC(CNc2ncc3cc(-c4ccccc4Cl)c(=O)[nH]c3n2)CC1 [Cpd 3]
q: Higher IC50 between P and Q ? Provide the label of your selected option as the answer.
a: Q
(Q: 2200 nM, P: 24 nM)

[A] Cn1c(=O)c(-c2ccccc2Cl)cc2cnc(N[C@H](CO)C(C)(C)C)nc21 [Cpd 18]
[B] CC(C)(CO)Nc1ncc2cc(-c3ccccc3Cl)c(=O)n(N)c2n1 [Cpd 13]
[C] CN(C)C(=O)CN1CCC(CNc2ncc3cc(-c4ccccc4Cl)c(=O)[nH]c3n2)CC1.Cl [Cpd 4]
[D] C[C@H](Nc1ncc2cc(-c3ccccc3Cl)c(=O)n(C)c2n1)C(C)(C)O [Cpd 8]
q: Order the records, beginning with the lowest IC50 and ending with the highest. Show the ranking through the labels, in the order asked for.
a: D, B, A, C
(D: 31 nM, B: 48 nM, A: 92 nM, C: 6270 nM)

[a] C[C@H](Nc1ncc2cc(-c3ccccc3Cl)c(=O)n(C3CC3)c2n1)C(C)(C)O [Cpd 12]
[b] Cn1c(=O)c(-c2ccccc2Cl)cc2cnc(NC(C)(C)CO)nc21 [Cpd 1]
q: Looking at recorded values for IC50, does a or b come in lower? Provide the label of your selected option as the answer.
a: b

src = patent US6518276B2
